All figures here come from PubChem BioAssay (NCI).

Below, each of the molecules is paired with its reported TGI value.
# Test system: SK-MEL-2 melanoma
# test.protocol: NCI tumour cell line growth inhibition, 48 h
endpoint.name: TGI

                                    molecule                tgt     result
 0  CCOP(=O)(OCC)/C(C#N)=C/c1ccc(-c2ccc(F)cc2F)o1  SK-MEL-2 melanoma      44 µM
 1     Cc1ccc2c(c1C)-c1c(ccc(C)c1C)C(=O)C2=O  SK-MEL-2 melanoma     3.1 µM
 2  COc1cc(-c2c(C#N)c(N)c(C#N)c3c2COc2ccccc2-3)cc(OC)c1OC  SK-MEL-2 melanoma  > 77.6 µM
 3  CCCCCCCCC(=O)N(C)C1C2CN3CCC(O2)C13 (stereo unspecified)  SK-MEL-2 melanoma   > 100 µM
 4  CCc1ccccc1N1CCN(C(=O)c2cc(OC)c(OC)c(OC)c2)CC1  SK-MEL-2 melanoma    2.78 µM
 5     O=c1c2c(c1=O)C1(SCCCS1)c1cc(Cl)ccc1O2  SK-MEL-2 melanoma   > 100 µM
 6  CC(C)(O)C1CCC(Nc2ccc3ncc(-c4cccc(C(F)(F)F)c4)n3n2)CC1 (stereo unspecified)  SK-MEL-2 melanoma    4.82 µM
 7  N=C(N)C(N=Nc1ccccc1)C(N)=O (stereo unspecified)  SK-MEL-2 melanoma   > 100 µM
 8  COc1ccccc1N1C(Cl)C(=O)C1c1c[nH]c2ccccc12 (stereo unspecified)  SK-MEL-2 melanoma   > 100 µM
 9  CCO[C@@H]1CCC(S(=O)c2ccc(C)cc2)=CO1 (stereo partly specified)  SK-MEL-2 melanoma   > 100 µM
10  CCOC(=O)c1cc(C2CCN(CC(C)CC)C2=S)c(-c2cc(C)no2)[nH]1 (stereo unspecified)  SK-MEL-2 melanoma   > 100 µM
